For each of the molecules below, state its CypF Kd.
System under test: CypF (Homo sapiens (Human))
Sequence (P30405 30-207): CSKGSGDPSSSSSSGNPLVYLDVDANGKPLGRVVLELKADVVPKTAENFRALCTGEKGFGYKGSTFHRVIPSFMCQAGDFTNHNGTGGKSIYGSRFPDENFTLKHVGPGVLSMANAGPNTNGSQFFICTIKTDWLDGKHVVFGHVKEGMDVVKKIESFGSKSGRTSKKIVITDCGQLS
Assay overview: Inhibitor binding to cyclophilin proteins by SPR, CypF
Run parameters: 1:1 binding model
Starred links: 1 amine or outer side, 2 acyl side, 3 side chain; linkers in the order of their positions; H or OH if unused. Non-standard residues stand in square brackets, D forms with d. Residues, ends and D or L forms follow the SMILES beside them. X26 = C[C@H](CN1CCn2c(nnc2C(F)(F)F)C1)[C@@H](C(=O)[*:2])N(C)[*:1]; X73 = CO[C@H]1CCN(CCOC[C@@H](C)[C@@H](C(=O)[*:2])N(C)[*:1])C1; X38 = C[C@@H](CN1CCN2C(=O)OCC2C1)[C@@H](C(=O)[*:2])N(C)[*:1]; X1 = COC[C@@H]1CN(C[C@H](C)[C@@H](C(=O)[*:2])N(C)[*:1])CCO1; X6 = C[C@@H](CN1CCN(C2COC2)CC1)[C@@H](C(=O)[*:2])N(C)[*:1]; MeBmt = C/C=C/C[C@@H](C)[C@@H](O)[C@H](NC)C(=O)O; NMeL = CN[C@@H](CC(C)C)C(=O)O; NMeV = CN[C@H](C(=O)O)C(C)C; dNMeA = CN[C@H](C)C(=O)O; Abu = CC[C@H](N)C(=O)O

Would you mind giving CypF Kd for every molecule in the list below?
1. C/C=C/C[C@@H](C)[C@@H](O)[C@H]1C(=O)N[C@@H](CC)C(=O)N(C)[C@H](C)C(=O)N(C)[C@@H]([C@@H](C)CN2CCN(C3COC3)CC2)C(=O)N[C@@H](C(C)C)C(=O)N(C)[C@@H](CC(C)C)C(=O)N[C@@H](C)C(=O)N[C@H](C)C(=O)N(C)[C@@H](CC(C)C)C(=O)N(C)[C@@H](CC(C)C)C(=O)N(C)[C@@H](C(C)C)C(=O)N1C [Compound 2.17.5] (cyclo(A[dA][NMeL][NMeL][NMeV][MeBmt][Abu][dNMeA][X6]V[NMeL]))
2. C/C=C/C[C@@H](C)[C@@H](O)[C@H]1C(=O)N[C@@H](CC)C(=O)N(C)[C@H](C)C(=O)N(C)[C@@H]([C@H](C)CN2CCn3c(nnc3C(F)(F)F)C2)C(=O)N[C@@H](C(C)C)C(=O)N(C)[C@@H](CC(C)C)C(=O)N[C@@H](C)C(=O)N[C@H](C)C(=O)N(C)[C@@H](CC(C)C)C(=O)N(C)[C@@H](CC(C)C)C(=O)N(C)[C@@H](C(C)C)C(=O)N1C [Compound 2.5.19] (cyclo(A[dA][NMeL][NMeL][NMeV][MeBmt][Abu][dNMeA][X26]V[NMeL]))

[A]
["400 pM", "1600 pM"]

List CypF Kd for every entry below, keeping the order given.
1. C/C=C/C[C@@H](C)[C@@H](O)[C@H]1C(=O)N[C@@H](CC)C(=O)N(C)[C@H](C)C(=O)N(C)[C@@H]([C@H](C)COCCN2CC[C@H](OC)C2)C(=O)N[C@@H](C(C)C)C(=O)N(C)[C@@H](CC(C)C)C(=O)N[C@@H](C)C(=O)N[C@H](C)C(=O)N(C)[C@@H](CC(C)C)C(=O)N(C)[C@@H](CC(C)C)C(=O)N(C)[C@@H](C(C)C)C(=O)N1C [Compound 2.8.7] (cyclo(A[dA][NMeL][NMeL][NMeV][MeBmt][Abu][dNMeA][X73]V[NMeL]))
2. C/C=C/C[C@@H](C)[C@@H](O)[C@H]1C(=O)N[C@@H](CC)C(=O)N(C)[C@H](C)C(=O)N(C)[C@@H]([C@@H](C)CN2CCN3C(=O)OCC3C2)C(=O)N[C@@H](C(C)C)C(=O)N(C)[C@@H](CC(C)C)C(=O)N[C@@H](C)C(=O)N[C@H](C)C(=O)N(C)[C@@H](CC(C)C)C(=O)N(C)[C@@H](CC(C)C)C(=O)N(C)[C@@H](C(C)C)C(=O)N1C (some centres unmarked) [Compound 2.17.10] (cyclo(A[dA][NMeL][NMeL][NMeV][MeBmt][Abu][dNMeA][X38]V[NMeL]))
3. C/C=C/C[C@@H](C)[C@@H](O)[C@H]1C(=O)N[C@@H](CC)C(=O)N(C)[C@H](C)C(=O)N(C)[C@@H]([C@@H](C)CN2CCO[C@H](COC)C2)C(=O)N[C@@H](C(C)C)C(=O)N(C)[C@@H](CC(C)C)C(=O)N[C@@H](C)C(=O)N[C@H](C)C(=O)N(C)[C@@H](CC(C)C)C(=O)N(C)[C@@H](CC(C)C)C(=O)N(C)[C@@H](C(C)C)C(=O)N1C [Compound 2.17.11] (cyclo(A[dA][NMeL][NMeL][NMeV][MeBmt][Abu][dNMeA][X1]V[NMeL]))

[A]
300 pM
400 pM
600 pM

Source: patent US9566312B2
